# TEST DESCRIPTION: Measurement of fluorescence quantum yield (Rhodamine B in ethanol as reference)
# Type: physicochemical
# TEST CONTEXT: solvent THF
TEST READOUT: Φ2 (fluorescence quantum yield)

// below: answered molecules
SMILES TEXT | TEST READOUT | OBSERVED VALUE
CCN(CC)C(=C\C1=[N+](CC)c2ccccc2C1(C)C)/C=C/C=C1/N(CC)c2ccccc2C1(C)C | Φ2 (fluorescence quantum yield) | 0.022
CCN1/C(=C/C=C/C(=C/C2=[N+](CC)c3ccccc3C2(C)C)Nc2ccccc2)C(C)(C)c2ccccc21 | Φ2 (fluorescence quantum yield) | 0.0002
CCN1/C(=C/C=C/C(=C/C2=[N+](CC)c3ccccc3C2(C)C)N(CCO)CCO)C(C)(C)c2ccccc21 | Φ2 (fluorescence quantum yield) | 0.099
CCN1/C(=C/C=C/C(N)=C/C2=[N+](CC)c3ccccc3C2(C)C)C(C)(C)c2ccccc21 | Φ2 (fluorescence quantum yield) | 0.008
CCN1/C(=C/C=C/C(=C/C2=[N+](CC)c3ccccc3C2(C)C)NCCO)C(C)(C)c2ccccc21 | Φ2 (fluorescence quantum yield) | 0.075

A: CCN1/C(=C/C=C/C(=C/C2=[N+](CC)c3ccccc3C2(C)C)N(Cc2ccccc2)Cc2ccccc2)C(C)(C)c2ccccc21
B: CCN1/C(=C/C=C/C(=C/C2=[N+](CC)c3ccccc3C2(C)C)NCc2ccccc2)C(C)(C)c2ccccc21
Response body: label of entry with the larger Φ2 (fluorescence quantum yield); valid values A , B . Field: selected label. Fill in the label of the entry you choose.
B
(B: 0.075, A: 0.034)

* * *

# TEST DESCRIPTION: Absorption and emission spectra of dyes in different solvents
# Format: physicochemical
# TEST CONTEXT: solvent DCM
TEST READOUT: λbs2 (nm)

SMILES TEXT | UNIT | λbs2
CCN1/C(=C/C=C/C(=C/C2=[N+](CC)c3ccccc3C2(C)C)N(Cc2ccccc2)Cc2ccccc2)C(C)(C)c2ccccc21 | nm | 453
CCN1/C(=C/C=C/C(=C/C2=[N+](CC)c3ccccc3C2(C)C)N(CCO)CCO)C(C)(C)c2ccccc21 | nm | 454
CCN1/C(=C/C=C/C(N)=C/C2=[N+](CC)c3ccccc3C2(C)C)C(C)(C)c2ccccc21 | nm | 418
CCN1/C(=C/C=C/C(=C/C2=[N+](CC)c3ccccc3C2(C)C)NCc2ccccc2)C(C)(C)c2ccccc21 | nm | 418
CCN1/C(=C/C=C/C(=C/C2=[N+](CC)c3ccccc3C2(C)C)NCCO)C(C)(C)c2ccccc21 | nm | 429
CCN(CC)C(=C\C1=[N+](CC)c2ccccc2C1(C)C)/C=C/C=C1/N(CC)c2ccccc2C1(C)C | nm | 453
CCN1/C(=C/C=C/C(=C/C2=[N+](CC)c3ccccc3C2(C)C)Nc2ccccc2)C(C)(C)c2ccccc21 | nm | 465

* * *

# TEST DESCRIPTION: Absorption and emission spectra of dyes in different solvents
# Type: physicochemical
# TEST CONTEXT: solvent DMSO
TEST READOUT: λem (nm)

SMILES TEXT | λem / nm
CCN1/C(=C/C=C/C(N)=C/C2=[N+](CC)c3ccccc3C2(C)C)C(C)(C)c2ccccc21 | 608
CCN1/C(=C/C=C/C(=C/C2=[N+](CC)c3ccccc3C2(C)C)N(Cc2ccccc2)Cc2ccccc2)C(C)(C)c2ccccc21 | 611
CCN(CC)C(=C\C1=[N+](CC)c2ccccc2C1(C)C)/C=C/C=C1/N(CC)c2ccccc2C1(C)C | 600
